# Test system: SARS-CoV-2
# testSummary: Antiviral activity against SARS-CoV-2 (USA-WA1/2020 strain) measured by imaging in HRCE cells at MOI 0.4 after 96 hrs (reported as hit score from 0-1 for on-disease vs off-disease activity: scores >0.6 considered hits)
# Format: functional
# measurementSetup: Homo sapiens
parameterMeasured: Hit score
# answer = number (no unit)

[in] Indicate its recorded Hit score; the sequence in question is FLUPENTIXOL
[out] 0.12

[in] Look up Hit score of THIMEROSAL and report it.
[out] -0.0445

[in] Report Hit score for OXALIPLATIN
[out] 0.0878

[in] Please report the measured Hit score for MONOCTANOIN
[out] -0.0148

[in] Answer with reported Hit score of GADODIAMIDE
[out] 0.193

src = ChEMBL document CHEMBL4303122
